# Substrate: Nc1ncnc2c1ncn2[C@@H]1O[C@H](COP(=O)(O)OP(=O)(O)OP(=O)(O)O)[C@@H](O)[C@H]1O
# assay.info: phosphate release, BIOMOL Green
# Type: biochemical, Homo sapiens
# condition.parameters: 50 mM HEPES-KOH pH 7.5, 100 mM NaCl, 5 mM MgCl2, 37 °C
reported.property: Km (mM)
State just the number; it will be interpreted in mM.

IN: # query: Km of entry ProS2-fused human PMS2 NTD (Homo sapiens; K340A) (protein) MERAESSSTEPAKAIKPIDRKSVHQICSGQVVLSLSTAVKELVENSLDAGATNIDLKLKDYGVDLIEVSDNGCGVEEENFEGLTLKHHTSKIQEFADLTQVETFGFRGEALSSLCALSDVTISTCHASAKVGTRLMFDHNGKIIQKTPYPRPRGTTVSVQQLFSTLPVRHKEFQRNIKKEYAKMVQVLHAYCIISAGIRVSCTNQLGQGKRQPVVCTGGSPSIKENIGSVFGQKQLQSLIPFVQLPPSDSVCEEYGLSCSDALHNLFYISGFISQCTHGVGRSSTDRQFFFINRRPCDPAKVCRLVNEVYHMYNRHQYPFVVLNISVDSECVDINVTPDARQILLQEEKLLLAVLKTSLIGMFDS
OUT: 0.16

IN: Find the recorded Km belonging to ProS2-fused human PMS2 NTD (Homo sapiens) (protein) MERAESSSTEPAKAIKPIDRKSVHQICSGQVVLSLSTAVKELVENSLDAGATNIDLKLKDYGVDLIEVSDNGCGVEEENFEGLTLKHHTSKIQEFADLTQVETFGFRGEALSSLCALSDVTISTCHASAKVGTRLMFDHNGKIIQKTPYPRPRGTTVSVQQLFSTLPVRHKEFQRNIKKEYAKMVQVLHAYCIISAGIRVSCTNQLGQGKRQPVVCTGGSPSIKENIGSVFGQKQLQSLIPFVQLPPSDSVCEEYGLSCSDALHNLFYISGFISQCTHGVGRSSTDRQFFFINRRPCDPAKVCRLVNEVYHMYNRHQYPFVVLNISVDSECVDINVTPDKRQILLQEEKLLLAVLKTSLIGMFDS and report it.
OUT: 0.19
